// values below are reported growth AUC
system: Parabacteroides merdae; test: growth AUC relative to DMSO control (median of replicates) (fraction); higher = more growth (less inhibition), active = hit call of the paper; conditions: 20 µM; 24 h

>  <SMILES STRUCTURE>
Clc1cccc(Cl)c1Cl

>  <ASSAYED SYSTEM>
Parabacteroides merdae

>  <growth AUC>
1.01 (inactive)

$$$$
>  <SMILES STRUCTURE>
CCNc1nc(NC(C)(C)C)nc(SC)n1

>  <ASSAYED SYSTEM>
Parabacteroides merdae

>  <growth AUC>
0.947 (inactive)

$$$$
>  <SMILES STRUCTURE>
CNC(=O)Oc1cc(C)c(N(C)C)c(C)c1

>  <ASSAYED SYSTEM>
Parabacteroides merdae

>  <growth AUC>
0.997 (inactive)

$$$$

Hello, the source for this data is the supplement of paper PMC12669032, in case you need it.
